Please respond with reported MIC for every item in the list.
Test system: Xanthomonas euvesicatoria
METHOD: Antibacterial activity against Xanthomonas vesicatoria ATCC 11633 by broth dilution colorimetric assay
Format: functional

[Q] Fill blank: measured MIC of the compound `COc1cc(O)c2c(=O)oc3c(O)c(OC)c(Cl)c(C)c3c2c1` is ____.
[A] 50 mg/L

[Q] Need MIC of `COc1cc(O)c2c(=O)oc3c(O)c(OC)cc(C)c3c2c1` , thanks.
[A] > 200 mg/L

[Q] Which MIC is reported for this compound? `COC1=C(Cl)[C@](C)(O)c2c(oc(=O)c3c(O)cc(OC)cc23)C1=O`
[A] > 200 mg/L

[Q] Sample `COC1=C(N)[C@](C)(O)c2c(oc(=O)c3c(O)cc(OC)cc23)C1=O` — what was its MIC?
[A] > 200 mg/L

[Q] Name the recorded MIC for `COc1cc(O)c2c(=O)oc3c(c2c1)[C@@](C)(O)C[C@H](OC)[C@@]31C[C@@H](O)C(=O)O1` .
[A] > 200 mg/L

###

METHOD: Cytotoxicity against human MDA-MB-231 cells
Format: functional, cell-based
pIC50: −log10 of the molar value.
PARAMETER_MEASURED: pIC50

[Q] Give its pIC50 value. Item: `COC1=C(Cl)[C@](C)(O)c2c(oc(=O)c3c(O)cc(OC)cc23)C1=O`
[A] 4.90 to 5.96

###

System: Pseudomonas amygdali pv. lachrymans
METHOD: Antibacterial activity against Pseudomonas lachrymans ATCC 11921 by broth dilution colorimetric assay
Assay type: functional
PARAMETER_MEASURED: IC50 (µg/mL)
Quick note: give the figure in µg/mL, leave out the unit.

[Q] Tell me reported IC50 for `COc1cc(O)c2c(=O)oc3c(O)c(OC)c(Cl)c(C)c3c2c1` , tested with Pseudomonas amygdali pv. lachrymans.
[A] 16.4

[Q] Short answer please: IC50, Pseudomonas amygdali pv. lachrymans, entry `COc1cc(O)c2c(=O)oc3c(c2c1)[C@@](C)(O)C(Cl)=C(O)C3=O`
[A] 4.3

[Q] // lookup IC50 | system=Pseudomonas amygdali pv. lachrymans | key= CN[C@@H]1[C@H](O[C@H]2[C@H](O[C@H]3[C@H](O)[C@@H](O)[C@H](N=C(N)N)[C@@H](O)[C@@H]3N=C(N)N)O[C@@H](C)[C@]2(O)C=O)O[C@@H](CO)[C@H](O)[C@H]1O.CN[C@@H]1[C@H](O[C@H]2[C@H](O[C@H]3[C@H](O)[C@@H](O)[C@H](N=C(N)N)[C@@H](O)[C@@H]3N=C(N)N)O[C@@H](C)[C@]2(O)C=O)O[C@@H](CO)[C@H](O)[C@H]1O.O=S(=O)(O)O.O=S(=O)(O)O.O=S(=O)(O)O [STREPTOMYCIN SULFATE]
[A] 2.3

[Q] Short answer please: IC50, Pseudomonas amygdali pv. lachrymans, entry `Cc1cc(O)cc2oc(=O)c3c(O)cc(O)cc3c12`
[A] 3.5

[Q] Notebook: pull reported IC50 for Pseudomonas amygdali pv. lachrymans, entry `COc1cc(O)c2c(=O)oc3c(c2c1)[C@@](C)(O)C[C@@H](OC)[C@@]31C[C@@H](O)C(=O)O1`
[A] 44.7

###

Can you tell me MIC for the items I'm about to list?
Tested on: Xanthomonas euvesicatoria
METHOD: Antibacterial activity against Xanthomonas vesicatoria ATCC 11633 by broth dilution colorimetric assay
Type: functional

[Q] Quick check: MIC on Xanthomonas euvesicatoria, item `Cc1c(Cl)c(O)cc2oc(=O)c3c(O)cc(O)cc3c12` ?
[A] 75 µg/mL

[Q] API: value(readout=MIC, system=Xanthomonas euvesicatoria) for record `COc1cc(O)c2c(=O)oc3c(c2c1)[C@@](C)(O)C[C@@H](OC)[C@@]31C[C@@H](O)C(=O)O1`
[A] > 200 µg/mL

[Q] Please tell me: MIC of `COC1=C[C@](C)(O)c2c(oc(=O)c3c(O)cc(OC)cc23)C1=O` , system Xanthomonas euvesicatoria?
[A] > 200 µg/mL

[Q] Short answer please: MIC, Xanthomonas euvesicatoria, entry CN[C@@H]1[C@H](O[C@H]2[C@H](O[C@H]3[C@H](O)[C@@H](O)[C@H](N=C(N)N)[C@@H](O)[C@@H]3N=C(N)N)O[C@@H](C)[C@]2(O)C=O)O[C@@H](CO)[C@H](O)[C@H]1O.CN[C@@H]1[C@H](O[C@H]2[C@H](O[C@H]3[C@H](O)[C@@H](O)[C@H](N=C(N)N)[C@@H](O)[C@@H]3N=C(N)N)O[C@@H](C)[C@]2(O)C=O)O[C@@H](CO)[C@H](O)[C@H]1O.O=S(=O)(O)O.O=S(=O)(O)O.O=S(=O)(O)O [STREPTOMYCIN SULFATE]
[A] 10 µg/mL

[Q] Observed MIC on Xanthomonas euvesicatoria for `Cc1cc(O)cc2oc(=O)c3c(O)cc(O)cc3c12` , please.
[A] 25 µg/mL

[Q] Checklist item: MIC tested on Xanthomonas euvesicatoria, entry `COc1cc(O)c2c(=O)oc3c(c2c1)[C@@](C)(O)C(Cl)=C(O)C3=O` , value?
[A] 100 µg/mL
